MIC E. coli ATCC 25922 listing for selected molecules.
Test system: E. coli ATCC 25922
Details: ATCC 25922
Description: Bacteria were either obtained from American Type Culture Collection (ATCC; Manassas, Va., USA) or independent academic clinical isolate collections, as listed in Table 18 below. Bacteria were cultured in Nutrient broth (NB; Bacto Laboratories, catalogue No. 234000) or Mueller Hinton broth (MHB; Bacto Laboratories, catalogue No. 211443) at 37° C. overnight with shaking (˜180 RPM). […]
Positions of bridges follow the written chain, without caps; N, C: chain ends. Non-standard residues stand in square brackets, D forms with d. Residues, ends and D or L forms follow the SMILES beside them. *: point of attachment. Decanoyl(3R-OH) = CCCCCCC[C@@H](O)CC(=O)*; dDab = NCC[C@@H](N)C(=O)O; dDap = NC[C@@H](N)C(=O)O; Dab = NCC[C@H](N)C(=O)O
Give a bare numeral; the unit µg/mL is implied.

# molecule, output.unit, MIC E. coli ATCC 25922
rows = [
    ("CCCCCCC[C@@H](O)CC(=O)N[C@H](CCN)C(=O)N[C@H]1CCNC(=O)[C@H](CO)NC(=O)[C@H](CCN)NC(=O)[C@H](CCN)NC(=O)[C@H](CC(C)C)NC(=O)[C@@H](Cc2ccccc2)NC(=O)[C@H](CCN)NC1=O [compound 6510] ({Decanoyl(3R-OH)}-[dDab][Dab][Dab][dF]L[Dab][Dab]S; lactam 2-C)", "µg/mL", 1),
]

Query molecule follows.
MIC E. coli ATCC 25922 reading for CCCCCCC[C@@H](O)CC(=O)N[C@H](CN)C(=O)N[C@H]1CCNC(=O)[C@H](CC(C)C)NC(=O)[C@H](CCN)NC(=O)[C@H](CCN)NC(=O)[C@H](C(C)C)NC(=O)[C@@H](Cc2ccccc2)NC(=O)[C@H](CCN)NC1=O [compound 9291] ({Decanoyl(3R-OH)}-[dDap][Dab][Dab][dF]V[Dab][Dab]L; lactam 2-C) : 2

---

experiment: in vitro; conditions: human
Positions of bridges follow the written chain, without caps; N, C: chain ends. Non-standard residues stand in square brackets, D forms with d. Residues, ends and D or L forms follow the SMILES beside them. *: point of attachment. Decanoyl(3R-OH) = CCCCCCC[C@@H](O)CC(=O)*; Igl = N[C@H](C(=O)O)C1Cc2ccccc2C1; Nonanoyl = CCCCCCCCC(=O)*; dDab = NCC[C@@H](N)C(=O)O; dDap = NC[C@@H](N)C(=O)O; Dab = NCC[C@H](N)C(=O)O; X5 = O=C(CCCCCCCO)*
CC50 at 24 h listing for selected compounds.

# compound, experimental.readout, assay.value
records = [
    ("CCCCCCC[C@@H](O)CC(=O)N[C@H](CCN)C(=O)N[C@H]1CCNC(=O)[C@H](C2Cc3ccccc3C2)NC(=O)[C@H](CCN)NC(=O)[C@H](CCN)NC(=O)[C@H](CC(C)C)NC(=O)[C@@H](Cc2ccccc2)NC(=O)[C@H](CCN)NC1=O [compound 8912] ({Decanoyl(3R-OH)}-[dDab][Dab][Dab][dF]L[Dab][Dab][Igl]; lactam 2-C)", "CC50 at 24 h", "28 µM"),
]

CC50 at 24 h reading for CC(C)C[C@@H]1NC(=O)[C@H](CCN)NC(=O)[C@H](CCN)NC(=O)[C@H](Cc2ccccc2)NC(=O)[C@@H](CC(C)C)NC(=O)[C@H](CCN)NC(=O)[C@@H](NC(=O)[C@@H](CCN)NC(=O)CCCCCCCO)CCNC1=O [compound 6514] (X5-[dDab][Dab][Dab][dL]F[Dab][Dab]L; lactam 2-C) : > 300 µM

CC50 at 24 h reading for CCCCCCCCC(=O)N[C@H](CN)C(=O)N[C@H]1CCNC(=O)[C@H](CC(C)C)NC(=O)[C@H](CCN)NC(=O)[C@H](CCN)NC(=O)[C@H](CC(C)C)NC(=O)[C@@H](Cc2ccccc2)NC(=O)[C@H](CCN)NC1=O [compound 9191] (Nonanoyl-[dDap][Dab][Dab][dF]L[Dab][Dab]L; lactam 2-C) : > 300 µM
